Tested on: Hs578T complex spheroid growth, percent test/control
Protocol notes: Anticancer human tumor Hs578T cell line growth inhibition [AhR];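 further: luminescent viability signal as a proxy for spheroid growth; spheroids exposed to agents for one week after three days of growth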
Measurement parameters: second compound 0.316 µM; first compound 0.0316 µM; hits give low values
Consider the following compounds and their measured viability, T/C readings.
The figure you give is taken to be in %; do not add the unit.

Example results:
Compound: CC1COCCN1c1cc(C2(S(C)(=N)=O)CC2)nc(-c2ccnc3[nH]ccc23)n1 (stereo not drawn) + Cc1cncc(-c2nc(NCCc3c[nH]c4ccccc34)c3ncn(C(C)C)c3n2)c1
System: Hs578T complex spheroid growth, percent test/control
viability, T/C / %: 119

Compound: COc1cc(C2c3cc4c(cc3C(OC3OC5COC(C)OC5C(O)C3O)C3COC(=O)C23)OCO4)cc(OC)c1O (stereo not drawn) + Cc1ccccc1N=Nc1ccc(NC(=O)c2ccnn2C)c(C)c1
System: Hs578T complex spheroid growth, percent test/control
viability, T/C / %: 101

Compound: CC1COCCN1c1cc(-c2ccnn2C)c2ccnc(-c3ccn[nH]3)c2n1 (stereo not drawn) + Cc1ccccc1N=Nc1ccc(NC(=O)c2ccnn2C)c(C)c1
System: Hs578T complex spheroid growth, percent test/control
viability, T/C / %: 109

query: Reported viability, T/C, compound CC1COCCN1c1cc(C2(S(C)(=N)=O)CC2)nc(-c2ccnc3[nH]ccc23)n1 (stereo not drawn) + Cc1ccccc1N=Nc1ccc(NC(=O)c2ccnn2C)c(C)c1 : ____
result: 101

query: Look up viability, T/C: Cn1ncnc1C1c2n[nH]c(=O)c3cc(F)cc(c23)NC1c1ccc(F)cc1 (stereo not drawn) + CC(CO)NC(=O)c1cc(-c2ccc(Cl)cc2)nn(-c2cnn(C)c2)c1=O
result: 118

query: Consider the compound shown here: NS(=O)(=O)OCC1CC(n2ccc3c(NC4CCc5ccccc54)ncnc32)CC1O (stereo not drawn) + Cc1ccccc1N=Nc1ccc(NC(=O)c2ccnn2C)c(C)c1 What is its recorded viability, T/C?
result: 108

query: # lookup: viability, T/C of CC[C@@]1(O)C(=O)OCc2c1cc1n(c2=O)Cc2cc3c(CN(C)C)c(O)ccc3nc2-1 + Cc1cncc(-c2nc(NCCc3c[nH]c4ccccc34)c3ncn(C(C)C)c3n2)c1
result: 80.5

All figures here come from PubChem BioAssay AID1919010.
